Data provenance is paper PMC7155171.

Tested on: HepG2-A16-CD81 hepatocytes
test_name: HepG2 cytotoxicity screening (CellTiter-Glo)
experimental_conditions: 12pt dose response, maximum inhibition
recorded_endpoint: HepG2 cytotoxicity 12pt dose response: Maximum inhibition (%)

>>> df
                                    compound  numeric_result
 0  CC(=O)c1c(F)cccc1N1CCC(Cc2cccnc2)CC1 [UCSD-0819611]              73
 1  COc1ccc(F)c(CN2CCCC(O)(CNCC(C)(C)C)C2=O)c1 (centres unmarked) [UCSD-0830878]           -11.6
 2  COc1ccc(OCCN2CCC(N3CCNC3=O)CC2)cc1 [UCSD-0840477]            42.1
 3  CCOc1ccccc1CNC(=O)NCC(c1cnn(C)c1)N(C)C (centres unmarked) [UCSD-0816742]           -5.65
 4  Cc1ccc2cc(C3(O)CCN(C(=O)CSC(C)C)CC3)ccc2n1 [UCSD-0827397]            39.9
 5  Cc1cc(C(=O)N2CCN(c3nc4c(C(C)C)cccc4s3)CC2)no1 [UCSD-0787009]            1.29
 6  Nc1nccc(N2CCCC(CO)(CCOc3ccccc3)C2)n1 (centres unmarked) [UCSD-0838947]            51.4
 7  COCCCNC1N=C(n2nc(C)cc2C)Nc2sc3c(c21)CCCC3 (centres unmarked) [UCSD-0796603]           -1.93
 8  CC(C)CN1CCCC1c1ccc(C(=O)Nc2cccnc2)s1 (centres unmarked) [UCSD-0828121]            5.88
 9  Cc1ccc(Nc2nccc(C3CCN(CC(N)=O)C3)n2)nc1 (centres unmarked) [UCSD-0800962]            15.1
10  Cc1ncc(C(=O)NC2CCN(CCOc3ccc(Br)cc3)CC2)s1 [UCSD-0818166]            7.96
11  CCCc1cc(=O)[nH]c(-n2nc(C3CC3)cc2N)n1 [UCSD-0786964]            75.4
12  CN1CCOC(C(=O)Nc2ccc3c(c2)nc(C(C)(C)C)n3C)C1 (centres unmarked) [UCSD-0818200]           0.658
13  CCOc1ccc(CN2CCCC(c3cc4ncccc4[nH]3)C2)cc1 (centres unmarked) [UCSD-0798855]            11.6
14  CCn1ccnc1CNCC(c1ccc(C)s1)N1CCOCC1 (centres unmarked) [UCSD-0810145]            56.3
15  Cc1noc(NC(=O)c2ccc(Br)s2)n1 [UCSD-0844983]            28.5
16  CCc1nc(CN2CCCN(c3ncnc4ccsc34)CC2)no1 [UCSD-0620395]            49.7
17  Cn1cncc1CN1CCCC1c1cncc(Oc2ccc(Cl)cc2)n1 (centres unmarked) [UCSD-0800730]            38.2
18  O=C(NC1CCCC1)O[C@H]1COCCN(c2nc3ccccc3s2)C1 [UCSD-0785020]           -1.51
19  COc1ccccc1C1CCN(c2ccc3cc[nH]c3n2)CC1 [UCSD-0836069]            60.6
